Target: YCF1 (vacuolar membrane vesicles purified from DTY165 cells) (Saccharomyces cerevisiae, UniProt P39109)
Construct: endogenous in cells; host or cells: S. cerevisiae DTY165 (wild type YCF1), vacuolar membrane vesicles
Sequence (P39109 whole entry): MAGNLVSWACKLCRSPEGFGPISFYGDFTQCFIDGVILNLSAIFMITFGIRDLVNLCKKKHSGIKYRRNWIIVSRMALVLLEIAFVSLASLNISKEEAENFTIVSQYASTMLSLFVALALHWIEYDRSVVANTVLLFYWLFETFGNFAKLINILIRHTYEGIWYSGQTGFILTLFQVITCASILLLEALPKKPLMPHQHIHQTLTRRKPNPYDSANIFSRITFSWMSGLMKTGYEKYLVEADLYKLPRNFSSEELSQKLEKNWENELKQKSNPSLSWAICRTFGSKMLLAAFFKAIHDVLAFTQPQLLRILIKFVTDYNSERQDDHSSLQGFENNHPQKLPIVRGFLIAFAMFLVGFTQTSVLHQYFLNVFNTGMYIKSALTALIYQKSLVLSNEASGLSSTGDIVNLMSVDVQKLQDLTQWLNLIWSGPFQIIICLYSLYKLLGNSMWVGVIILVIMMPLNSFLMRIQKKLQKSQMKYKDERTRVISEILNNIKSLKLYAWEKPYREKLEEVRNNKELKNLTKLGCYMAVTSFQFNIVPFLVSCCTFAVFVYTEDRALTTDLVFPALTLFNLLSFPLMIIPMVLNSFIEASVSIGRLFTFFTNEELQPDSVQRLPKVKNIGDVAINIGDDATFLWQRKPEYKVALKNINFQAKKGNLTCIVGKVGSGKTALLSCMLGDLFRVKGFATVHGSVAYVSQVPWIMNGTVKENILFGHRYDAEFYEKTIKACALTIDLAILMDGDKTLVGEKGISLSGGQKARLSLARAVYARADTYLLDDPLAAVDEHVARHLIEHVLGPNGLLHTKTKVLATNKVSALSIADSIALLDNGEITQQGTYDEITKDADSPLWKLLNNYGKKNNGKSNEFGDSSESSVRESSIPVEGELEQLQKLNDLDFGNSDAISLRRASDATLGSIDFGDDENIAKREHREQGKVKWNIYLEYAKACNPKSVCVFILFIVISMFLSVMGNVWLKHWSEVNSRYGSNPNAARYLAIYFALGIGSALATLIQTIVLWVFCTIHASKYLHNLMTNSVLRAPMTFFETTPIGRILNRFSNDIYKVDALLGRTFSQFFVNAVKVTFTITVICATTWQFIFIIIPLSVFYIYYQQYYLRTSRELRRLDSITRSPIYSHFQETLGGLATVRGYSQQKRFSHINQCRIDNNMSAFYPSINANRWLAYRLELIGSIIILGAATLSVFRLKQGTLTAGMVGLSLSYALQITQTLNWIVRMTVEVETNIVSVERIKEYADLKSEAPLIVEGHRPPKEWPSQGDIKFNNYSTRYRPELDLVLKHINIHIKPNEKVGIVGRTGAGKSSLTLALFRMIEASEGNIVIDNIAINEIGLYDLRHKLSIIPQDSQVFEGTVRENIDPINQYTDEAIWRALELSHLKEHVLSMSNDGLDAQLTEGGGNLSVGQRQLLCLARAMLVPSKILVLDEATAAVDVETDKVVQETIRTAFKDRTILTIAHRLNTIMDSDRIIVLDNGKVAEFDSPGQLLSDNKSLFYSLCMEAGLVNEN
Experiment: [3H]DNP-GS uptake by vacuolar membrane vesicles purified from DTY165 cells
Type: biochemical
Conditions: 5 μM gramicidin D; read-out: I50 for MgATP-dependent, uncoupler-insensitive DNP-GS uptake
Method: For the routine preparation of vacuolar membrane vesicles, 15 ml of stationary phase cultures of DTY165 or DTY167 were diluted into 1-liter volumes of fresh YPD medium, grown for 24 hours at 30° C. to an OD600 nm of approximately 0.8 and collected by centrifugation. […]
Readout kind: IC50
# output: numeric value plus its unit

Field request: IC50 | item: [O]=[V]([O-])([O-])[O-] [Vanadate]
179 µM

====

Target: YCF1 (vacuolar membrane vesicles purified from DTY165 cells) (Saccharomyces cerevisiae, UniProt P39109)
Construct: endogenous in cells
Assay: biochemical
Settings: read-out: Ki(DNP-GS) for inhibition of Cd.GS2 uptake
Readout kind: Ki (µM)
Report as a plain number; the unit µM is understood.

Recorded Ki of N[C@@H](CCC(=O)N[C@@H](CSc1ccc([N+](=O)[O-])cc1[N+](=O)[O-])C(=O)NCC(=O)O)C(=O)O [DNP-GS, S-(2,4-dinitrophenyl)glutathione] , please.
11.3
